# ASSAY TARGET: Progesterone receptor (Homo sapiens)
# ASSAY: qHTS assay to identify small molecule agonists of the progesterone receptor (PR) signaling pathway (AID 1346784); also: nearly all actives have a fitted effect of over 30% in size
# TEST CONTEXT: PR-UAS-bla HEK293T, beta-lactamase FRET ratio, 16 h; series mostly up to 92.4 µM
Inconclusive results are not listed. Calls of active or inactive are those of the source. Calls follow the shape of the full dose curve.
REPORTED ENDPOINT: outcome

Examples with answers:
{"COMPOUND": "CC1(C)[C@H](C(=O)O[C@H](C#N)c2cccc(Oc3ccccc3)c2)[C@@H]1/C=C(\\Cl)C(F)(F)F", "REPORTED ENDPOINT": "outcome", "RECORDED VALUE": "inactive"}
{"COMPOUND": "CC(C)CBr", "REPORTED ENDPOINT": "outcome", "RECORDED VALUE": "inactive"}
{"COMPOUND": "Clc1ccc(-c2ccc(Cl)c(Cl)c2Cl)c(Cl)c1Cl", "REPORTED ENDPOINT": "outcome", "RECORDED VALUE": "inactive"}
{"COMPOUND": "Cn1[nH]nnc1=S", "REPORTED ENDPOINT": "outcome", "RECORDED VALUE": "inactive"}
{"COMPOUND": "C=CCOC(N)=O", "REPORTED ENDPOINT": "outcome", "RECORDED VALUE": "inactive"}

IN: Record "CC(=O)c1ccc(-c2ccccc2)cc1" : what is its outcome with Progesterone receptor (Homo sapiens)?
OUT: inactive

* * *

# ASSAY: A CellTox Green Cytotoxicity Assay to monitor cytotoxicity in HepG2 cells - 40 hour (AID 1224879); also: nearly all actives have a fitted effect of over 40% in size
# TEST CONTEXT: CellTox Green fluorescence; series mostly up to 76.8 µM
Inconclusive results are not listed. Active and inactive are the calls of the source. Calls follow the shape of the dose curve; as a rule, active = well fitted activation curve with a large enough effect in the repeat runs; inconclusive = weak or mixed curves; inactive = flat fitted curve, though single readings scatter.
Form entry, call: pick from t (active), f (inactive)

These solved cases illustrate the format of a correct answer.
{"MOLECULE": "O=c1ssc(Cl)c1Cl", "ASSIGNED CLASS": "t"}
{"MOLECULE": "CC(C)CCCCCOC(=O)c1ccccc1C(=O)OCCCCCC(C)C", "ASSIGNED CLASS": "f"}
{"MOLECULE": "ClCCN1CCOCC1", "ASSIGNED CLASS": "f"}
{"MOLECULE": "CC(c1ccc(O)cc1)c1ccc(O)cc1", "ASSIGNED CLASS": "f"}
{"MOLECULE": "CC(C)C1CCC(Cc2ccc(Cl)cc2)C1(O)Cn1cncn1 (configuration not stated)", "ASSIGNED CLASS": "t"}
{"MOLECULE": "Nc1ccc(Cl)cc1C(=O)c1ccccc1", "ASSIGNED CLASS": "f"}
{"MOLECULE": "C[CH2][Hg][N]1C(=O)C2C(C1=O)C1(Cl)C(Cl)=C(Cl)C2(Cl)C1(Cl)Cl (configuration not stated)", "ASSIGNED CLASS": "t"}
{"MOLECULE": "CCS(=O)(=O)c1cccnc1S(=O)(=O)NC(=O)Nc1nc(OC)cc(OC)n1", "ASSIGNED CLASS": "f"}

IN: Assay result, entry "ClC1=C(Cl)[C@]2(Cl)[C@@H]3[C@@H](Cl)[C@@H](Cl)C[C@@H]3[C@@]1(Cl)C2(Cl)Cl" — outcome?
OUT: f

IN: Kindly provide the recorded test outcome for the following molecule: "CC[C@H]1C[C@@H]2C[C@H]3c4[nH]c5ccc(OC)cc5c4CCN(C2)[C@@H]13"
OUT: t

IN: Hello, I am checking results. What call was entered for "CCCCCCCCCCCCCCCCCCn1cc[n+](C)c1" ?
OUT: t

IN: Kindly provide the recorded test outcome for the following molecule: "CCOCn1c(-c2ccc(Cl)cc2)c(C#N)c(Br)c1C(F)(F)F"
OUT: t

IN: Assay result, entry "CC(=[OH+])/C=C(/C)[O-].CC(=[OH+])/C=C(\C)[O-].CC(=[OH+])/C=C(\C)[O-].[Al]" — outcome?
OUT: f

IN: Which outcome did this test record for the molecule "O=C(O)c1cc[c]([Hg][Cl])cc1" ?
OUT: t

IN: Hi, sorry to bother you, what did the test record for "CN(C)S(=O)(=O)N(SC(F)(Cl)Cl)c1ccccc1" ?
OUT: t

IN: Per the assay record, what outcome was assigned to "CCCCCCCCCCBr" ?
OUT: f

IN: Lab log entry: CC1(C)C(/C=C(\Cl)C(F)(F)F)C1C(=O)OC(C#N)c1cccc(Oc2ccccc2)c1 (configuration not stated) — outcome as called in the assay?
OUT: f

IN: Dear all, I need the recorded test outcome for "CCOP(=S)(OCC)SCS(=O)(=O)CC" , thank you.
OUT: f

IN: State the result this test recorded for "O=C(CCl)C(Cl)Cl" .
OUT: t

IN: Tell me the recorded outcome of this test for "C[C@H]1O[C@@H](O[C@H]2[C@@H](O)C[C@H](O[C@H]3[C@@H](O)C[C@H](O[C@H]4CC[C@@]5(C)[C@H](CC[C@@H]6[C@@H]5CC[C@]5(C)[C@@H](C7=CC(=O)OC7)CC[C@]65O)C4)O[C@@H]3C)O[C@@H]2C)C[C@H](O)[C@@H]1O" .
OUT: f

IN: Each molecule tested received a call. Report the one for C1CCC2CCCCC2C1 (configuration not stated) .
OUT: f

IN: Query: recorded result category for "C[C@]12CC[C@@H]3c4ccc(OC(=O)N(CCCl)CCCl)cc4CC[C@H]3[C@@H]1CC[C@@H]2O" in this test
OUT: f

All values here come from PubChem BioAssay (Tox21).
